assay: qHTS assay to identify small molecule agonists of the sonic hedgehog signaling (Shh) pathway - cell viability counter screen (AID 1259366); details: NIH/3T3 Gli1-Luc viability, CellTiter-Fluor, 24 h; series mostly up to 92.4 µM; note: nearly all actives have a fitted effect of over 50% in size; note: potency is the fitted concentration of half-maximal effect
Results filed as inconclusive are left out. The source made the active and inactive calls. Calls come from the whole dose curve; as a rule, active = well fitted cell-killing curve with a large enough effect in the repeat runs; inconclusive = weak or mixed curves, or effect the other way; inactive = flat fitted curve, though single readings scatter.
reported-endpoint: Potency

>  <smiles-text>
Cc1onc(-c2c(Cl)cccc2Cl)c1C(=O)N[C@@H]1C(=O)N2[C@@H]1SC(C)(C)[C@@H]2C(=O)O

>  <result>
inactive

$$$$
>  <smiles-text>
O=c1[nH]sc2ccccc12

>  <result>
13.7 µM (active)

$$$$
>  <smiles-text>
N=C1C=CC(=C(c2ccc(N)cc2)c2ccc(N)cc2)C=C1

>  <result>
21.7 µM (active)

$$$$
>  <smiles-text>
CC(C)=CCOc1ccc(/C=C/C(=O)c2ccc(OCC=C(C)C)cc2OCC(=O)O)cc1

>  <result>
inactive

$$$$

Next item in the queue.
Reported Potency for Cc1cc(O)c2ccccc2c1O : what is it?
5.31 µM (active)

* * *

Test: qHTS assay to identify small molecule agonists of the vitamin D receptor (VDR) signaling pathway - cell viability counter screen (AID 743224); note: nearly all actives have a fitted effect of over 50% in size
Conditions: VDR-bla HEK293T viability, CellTiter-Glo luminescence, 16 h; series mostly up to 62.6 µM
Description: U.S. Tox21 Program National Center for Advancing Translational Sciences [NCATS] NIH Chemical Genomics Center [NCGC] U.S. Environmental Protection Agency [EPA] National Institutes of Environmental Health Sciences [NIEHS] National Toxicology Program [NTP] U.S. Food and Drug Administration [FDA] Tox21 Assay Overview: The vitamin D receptor (VDR), a member of nuclear hormone receptor superfamily, plays a critical role in calcium homeostasis and bone metabolism. […]
Inconclusive results are not listed. Activity calls are given as the source filed them. Calls follow the shape of the dose curve; as a rule, active = well fitted cell-killing curve with a large enough effect in the repeat runs; inconclusive = weak or mixed curves, or effect the other way; inactive = no such curve, though single readings can be large or run the other way.
Pick one and only one: 1 (yes) (active), 0 (no) (inactive)

Assay result, entry O=C1CCCc2c1cc1ccc3cccc4ccc2c1c34 — outcome?
0 (no)

Assay result, entry CCCCCCCC/C=C/CCCCCCCC1=NCCN1CCO — outcome?
1 (yes)

Assay result, entry O=C(Oc1ccccc1)c1ccccc1C(=O)Oc1ccccc1 — outcome?
0 (no)

Assay result, entry COC(=O)C1=C(C)NC(C)=C(C(=O)OCC(C)C)C1c1ccccc1[N+](=O)[O-] (stereo unspecified) — outcome?
1 (yes)

Assay result, entry Cn1cc(C(=O)[C@@H]2CCc3nc[nH]c3C2)c2ccccc21 — outcome?
0 (no)

Assay result, entry O=C(O)c1ccc(Cl)c(Cl)c1 — outcome?
0 (no)

Assay result, entry Cc1cc(C2CCCCC2)n(O)c(=O)c1 — outcome?
1 (yes)

Assay result, entry COc1cc(-c2ccc(N=C=O)c(OC)c2)ccc1N=C=O — outcome?
0 (no)

Assay result, entry Oc1ccc2cc(SSc3ccc4cc(O)ccc4c3)ccc2c1 — outcome?
0 (no)

Assay result, entry Cc1ccc(O)c(C(C)(C)C)c1 — outcome?
1 (yes)

Assay result, entry O=[N+]([O-])c1ccccc1Nc1ccccc1 — outcome?
0 (no)

Assay result, entry CCCCCCCCCCCC[N+](C)(C)CCCCCCCCCCCC — outcome?
1 (yes)

Assay result, entry CC(C)OC(=O)c1cc2c(OCC(O)CNC(C)(C)C)cccc2[nH]1 (stereo unspecified) — outcome?
0 (no)

Assay result, entry CC1=NC(C)OC1C (stereo unspecified) — outcome?
0 (no)

Assay result, entry Nc1ccc(N)c2ccccc12 — outcome?
1 (yes)

Assay result, entry O=[N+]([O-])c1cc(Cl)c(Cl)c(Cl)c1Cl — outcome?
0 (no)

Assay result, entry O=C1C=CC(=O)N1 — outcome?
1 (yes)

Assay result, entry Cc1ccc2oc(CN(Cc3ccccc3)C(=O)Nc3c(F)cc(F)cc3F)c(-c3ccc(Cl)cc3)c2c1 — outcome?
0 (no)

Assay result, entry COCCCC/C(=N\OCCN)c1ccc(C(F)(F)F)cc1 — outcome?
0 (no)

Assay result, entry CC(=O)SC[C@@H](Cc1ccccc1)C(=O)NCC(=O)OCc1ccccc1 — outcome?
0 (no)

Assay result, entry CCCCCCCCn1sc(Cl)c(Cl)c1=O — outcome?
1 (yes)

Assay result, entry CCCCC(CC)CN=C(N)NC(N)=NCCCCCCN=C(N)NC(N)=NCC(CC)CCCC (stereo unspecified) — outcome?
1 (yes)

Assay result, entry NC(=O)C1(N2CCCCC2)CCN(CCCN2c3ccccc3CCc3ccc(Cl)cc32)CC1 — outcome?
1 (yes)

Assay result, entry CCN(C(=O)c1cc(C)cc(OC[C@H](C)Nc2ccncc2)c1)C(C)C — outcome?
0 (no)

Assay result, entry CN(C)C(=O)C1(N2CCCCC2)CCN(CC[C@@]2(c3ccc(Cl)c(Cl)c3)CN(C(=O)c3ccccc3)CCO2)CC1 — outcome?
1 (yes)

Assay result, entry C=C(C)C(=O)OCC(O)COc1ccc(C(C)(C)c2ccc(OCC(O)COC(=O)C(=C)C)cc2)cc1 (stereo unspecified) — outcome?
1 (yes)
